Please respond with reported hERG current change (%, negative = inhibition) at 10uM for every item in the list.
biological target: human ether-à-go-go-related gene (hERG) potassium channel (human); assay: primary screen, population patch clamp on CHO cells stably expressing hERG; higher = less effect of the substance;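 also: peak tail current of the secondary pulse compared with the same well before compound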
The whole screen tested about 310,000 compounds, of which about 14,000 (4.5%) showed an effect of 50% or more. The effect is printed as a negative number. Shown is part of a subset that was picked to be rich in strong results.
Answers are plain numbers, in %.

O=C(c1cccc(C(F)(F)F)c1)N1CCC(O)(CS(=O)(=O)Cc2ccccc2Cl)CC1 : -8.87
COc1ccc(Cl)c2sc(N(CCN(C)C)C(=O)c3ccc4c(c3)OCCO4)nc12.Cl : -29.2
O=C(Oc1ccc2ccccc2c1)C1CCC1 : 17
N#C/C(=C\c1ccc([N+](=O)[O-])cc1)C(=O)NCCCn1ccnc1 : -59.5

Give the reported value of hERG current change (%, negative = inhibition) at 10uM for this record: `COc1ccc(C(=O)N/C(=C\c2cn(S(=O)(=O)N(C)C)c3ccccc23)C(=O)NCCCn2ccnc2)cc1` 1.07

----------
target: human ether-à-go-go-related gene (hERG) potassium channel (human, UniProt Q12809); experiment: primary screen, population patch clamp on CHO cells stably expressing hERG; higher = less effect of the substance;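 also: peak tail current of the secondary pulse compared with the same well before compound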
Sequence (Q12809 whole entry, looked up): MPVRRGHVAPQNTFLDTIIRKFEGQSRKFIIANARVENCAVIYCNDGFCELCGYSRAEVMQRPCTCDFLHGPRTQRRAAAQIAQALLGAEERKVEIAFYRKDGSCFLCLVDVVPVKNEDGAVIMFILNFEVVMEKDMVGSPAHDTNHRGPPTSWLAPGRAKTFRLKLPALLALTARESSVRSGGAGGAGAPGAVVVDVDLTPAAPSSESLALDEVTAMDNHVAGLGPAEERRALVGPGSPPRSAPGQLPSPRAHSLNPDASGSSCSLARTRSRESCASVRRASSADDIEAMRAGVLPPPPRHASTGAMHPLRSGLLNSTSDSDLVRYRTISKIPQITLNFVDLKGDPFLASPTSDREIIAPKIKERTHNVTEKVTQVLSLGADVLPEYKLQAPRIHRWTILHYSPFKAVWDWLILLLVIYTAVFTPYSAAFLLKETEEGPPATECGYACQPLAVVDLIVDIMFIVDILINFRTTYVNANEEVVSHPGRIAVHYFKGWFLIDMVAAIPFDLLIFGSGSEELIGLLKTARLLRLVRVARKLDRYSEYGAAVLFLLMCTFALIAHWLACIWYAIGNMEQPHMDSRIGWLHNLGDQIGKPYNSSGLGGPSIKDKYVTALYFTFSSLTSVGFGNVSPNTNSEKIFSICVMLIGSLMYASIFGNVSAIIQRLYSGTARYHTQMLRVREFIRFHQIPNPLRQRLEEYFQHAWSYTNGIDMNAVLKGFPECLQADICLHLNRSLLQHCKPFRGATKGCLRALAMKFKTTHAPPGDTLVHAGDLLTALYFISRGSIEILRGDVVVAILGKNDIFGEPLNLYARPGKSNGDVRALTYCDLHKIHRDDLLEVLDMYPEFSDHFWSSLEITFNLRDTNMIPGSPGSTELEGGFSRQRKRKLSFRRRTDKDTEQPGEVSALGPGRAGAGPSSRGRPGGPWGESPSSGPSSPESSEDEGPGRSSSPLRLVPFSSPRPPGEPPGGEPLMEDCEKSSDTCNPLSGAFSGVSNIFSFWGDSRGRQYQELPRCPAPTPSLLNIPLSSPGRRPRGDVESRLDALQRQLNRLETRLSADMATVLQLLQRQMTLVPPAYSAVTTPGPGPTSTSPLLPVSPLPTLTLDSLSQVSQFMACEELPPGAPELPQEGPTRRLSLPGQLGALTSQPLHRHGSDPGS
In all, about 310,000 compounds went through this assay and about 14,000 (4.5%) showed an effect of 50% or more. Effects have a minus sign here. This excerpt belongs to a sample that is enriched for strong results.
Please respond with reported hERG current change (%, negative = inhibition) at 10uM for every item in the list.
One number for each entry, in %.

O=C(N/N=C\c1cccc(Cl)c1)c1ccc(Cn2cccn2)o1 : -71.2
Cc1cccc(/C=C2\Sc3ccc(C(=O)N4CCCCC4)cc3N(C)C2=O)c1 : 12.1
C=CCn1c(SCC(=O)NCc2ccco2)nnc1-c1ccc2ccccc2n1 : -28.2
Cc1ccccc1C(=O)N1CCC(C(=O)Nc2ccccn2)CC1 : 11.9

Fill in hERG current change (%, negative = inhibition) at 10uM for each of the 4 compounds listed.
1. O=C(NCC(=O)N(Cc1ccco1)C(C(=O)NC1CCCC1)c1ccncc1)c1cccs1 (stereo not shown)
2. COc1ccc(NC(=O)C2CCCCN2N)cc1OCC(C)C.O=C(O)C(=O)O (stereo not shown)
3. Cc1ccc2[nH]c(=O)c3cc(C(=O)NCC4CCCO4)sc3c2c1 (stereo not shown)
4. CC(=O)O[C@@H]1/C=C/[C@](C)(O)C[C@@H](C)C/C=C/[C@H]2[C@@H]3O[C@]3(C)[C@@H](C)[C@H]3[C@H](Cc4ccccc4)NC(=O)[C@@]312

[-0.29, -5.25, -3.5, 16]

----------
target: human ether-à-go-go-related gene (hERG) potassium channel (human, UniProt Q12809); assay: primary screen, population patch clamp on CHO cells stably expressing hERG; higher = less effect of the substance;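 also: peak tail current of the secondary pulse compared with the same well before compound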
Screen size: about 310,000 compounds; about 14,000 (4.5%) showed an effect of 50% or more. The effect is printed as a negative number. This excerpt belongs to a sample that is enriched for strong results.
Please respond with reported hERG current change (%, negative = inhibition) at 10uM for every item in the list.
Answers are plain numbers, in %.

Look over these answered cases.
CC1(C)CC(=O)N(c2cccc(Cl)c2)C(=O)C1 : 10.4
O=C1CC2CS(=O)(=O)CC2N1c1ccc(Cl)cc1Cl (stereo not drawn) : 5.75
COc1ccc(NC(=O)CN(C)CC(=O)Nc2sc3c(c2C(N)=O)CCC3)cc1 : -79
CCN1C(=O)c2ccc(C(=O)Nc3ncc(C)s3)cc2C1=O : 6.29

Fill in hERG current change (%, negative = inhibition) at 10uM for each of the 4 compounds listed.
1. CN(C(=O)CC1C(=O)NCCN1Cc1ccc(F)cc1Cl)C1CCCCC1 (stereo not drawn)
2. Cc1ccc(S(=O)(=O)NCCC(=O)Nc2cc(F)ccc2C)cc1C
3. CN(CC(=O)Nc1ccc(C(N)=O)cc1)CC(=O)Nc1ccccc1Cl
4. Cc1ccc(NC(=O)CN(C)CC(=O)Nc2sc3c(c2C(N)=O)CCC3)cc1

[-2.68, 2.51, -5.04, -55.5]

Fill in hERG current change (%, negative = inhibition) at 10uM for each of the 7 compounds listed.
1. CCC(=O)Nc1sc2c(c1C(N)=O)CCC2
2. O=C1/C(=C\c2cccnc2)CN(Cc2ccccc2)C/C1=C\c1cccnc1
3. CCCOc1ccccc1/C=C1\SC(N2CCCCC2)=NC1=O
4. Cn1c(SCC(=O)Nc2ccc3[nH]c(=O)[nH]c3c2)nnc1-c1ccc(F)cc1
5. Cc1nc(CN2CCN(C(=O)c3ccc(C(C)(C)C)cc3)CC2)cs1.Cl
6. CC1(C)Oc2ccc3ccc(=O)oc3c2C(/C=N/O)=C1Cl
7. CCCc1cc(C(=O)NC(C)C2CCCO2)cs1 (stereo not drawn)

1. -15.7
2. -29.4
3. -12.3
4. 7.63
5. -3.25
6. 14.7
7. 7.72

Fill in hERG current change (%, negative = inhibition) at 10uM for each of the 3 compounds listed.
1. COc1ccc(S(=O)(=O)N2CCC(C(=O)N[C@@H](C)C(=O)NC3CCCC3)CC2)cc1
2. [S-]C(=Nc1ccc(Cl)cc1)N[n+]1ccccc1
3. COc1ccc(CC(=O)Nc2sc3c(c2C(N)=O)CCCC3)cc1

[13.4, 1.12, -1.39]

Fill in hERG current change (%, negative = inhibition) at 10uM for each of the 3 compounds listed.
1. Cc1[nH]c2ccc(C(=O)OC(C)C(=O)N(C)c3ccccc3)cc2c1C (stereo not drawn)
2. CCc1ccccc1NC(=O)c1ccccc1N1C(=O)C2C3C=CC(C3)C2C1=O (stereo not drawn)
3. Cc1cccc(C)c1NC(=O)CN(C)CC(=O)Nc1sc2c(c1C(N)=O)CCC2

1. 1.13
2. 18.3
3. -33.9
